These data points were gathered from ChEMBL document CHEMBL1156068.

TEST_PROTOCOL: Cytotoxicity against human MT4 cells assessed as reduction of cell viability after 96 hrs by MTT assay
Format: cell-based
Recorded CC50 at 96 h, one value per entry.
I only need the number, in µM, no unit after it.

# COMPOUND, ATTRIBUTE_MEASURED, REPORTED_MEASUREMENT
data = [
    ("CC(C)C12C=CC(C)(CC1)C1C(=O)N(NC(=S)NCc3ccccc3)C(=O)C12 (centres undefined)", "CC50 at 96 h", 58),
    ("CC(C)C12C=CC(C)(CC1)C1C(=O)N(N3CCCCS/C3=N\\c3ccc(F)cc3)C(=O)C12 (centres undefined)", "CC50 at 96 h", 86),
    ("CC(C)C12C=CC(C)(CC1)C1C(=O)N(NC(=S)Nc3ccc(Cl)c(Cl)c3)C(=O)C12 (centres undefined)", "CC50 at 96 h", 59),
]

CC50 at 96 h reading for CC1=CC2C(C(C)C)CC1C1C(=O)N(N3CCCCS/C3=N\c3ccc(Cl)cc3)C(=O)C21 (centres undefined) : 30

CC50 at 96 h reading for CC1=CC2C(C(C)C)CC1C1C(=O)N(N3CCCCS/C3=N\c3ccc(I)cc3)C(=O)C21 (centres undefined) : 22

CC50 at 96 h reading for CC1=CC2C(C(C)C)CC1C1C(=O)N(N3CCCCS/C3=N\c3ccc(Cl)c(Cl)c3)C(=O)C21 (centres undefined) : 100

CC50 at 96 h reading for CC1=CC2C(C(C)C)CC1C1C(=O)N(N3CCCCS/C3=N\Cc3ccccc3)C(=O)C21 (centres undefined) : 47

CC50 at 96 h reading for CC1=CC2C(C(C)C)CC1C1C(=O)N(NC(=S)Nc3ccc(F)cc3)C(=O)C21 (centres undefined) : 69

CC50 at 96 h reading for CC1=CC2C(C(C)C)CC1C1C(=O)N(NC(=S)Nc3ccc(Cl)cc3)C(=O)C21 (centres undefined) : 45

CC50 at 96 h reading for CC1=CC2C(C(C)C)CC1C1C(=O)N(NC(=S)NCc3ccccc3)C(=O)C21 (centres undefined) : 54

CC50 at 96 h reading for C=CC/N=C1\SCCCCN1N1C(=O)C2C3CC(C(C)C)C(C=C3C)C2C1=O (centres undefined) : 59

----------
TEST_PROTOCOL: Cytotoxicity against human MT4 cells assessed as reduction of cell viability after 96 hrs by MTT assay
Assay type: cell-based
ATTRIBUTE_MEASURED: CC50 at 96 h (µM)
I only need the number, in µM, no unit after it.

# COMPOUND, UNIT_OF_MEASUREMENT, REPORTED_MEASUREMENT
records = [
    ("CC1=CC2C(C(C)C)CC1C1C(=O)N(N3CCCCS/C3=N\\c3ccc(F)cc3)C(=O)C21 (centres undefined)", "µM", 49),
]

CC50 at 96 h reading for O=C1Nc2ccc(Cl)cc2[C@@](C#CC2CC2)(C(F)(F)F)O1 : 35

CC50 at 96 h reading for CC1=CC2C(C(C)C)CC1C1C(=O)N(NC(=S)Nc3ccc(I)cc3)C(=O)C21 (centres undefined) : 45

----------
Tested on: Human alphaherpesvirus 1
TEST_PROTOCOL: Antiviral activity against HSV1 infected in african green monkey Vero76 cells after 3 days by plaque reduction assay
Format: functional, organism-based
CONDITION_PARAMETERS: Vero 76
Calls of active or inactive are those of the source. The calls are words filed in the database; no cut-off is given here.
ATTRIBUTE_MEASURED: Activity

# annotated cases, reported Activity shown
# COMPOUND, REPORTED_MEASUREMENT
records = [
    ("CC(C)C12C=CC(C)(CC1)C1C(=O)N(N3CCCCS/C3=N\\c3ccc(Cl)c(Cl)c3)C(=O)C12 (centres undefined)", "inactive"),
    ("CC(C)C12C=CC(C)(CC1)C1C(=O)N(NC(=S)Nc3ccc(Cl)c(Cl)c3)C(=O)C12 (centres undefined)", "inactive"),
    ("C=CCNC(=S)NN1C(=O)C2C(C1=O)C1(C(C)C)C=CC2(C)CC1 (centres undefined)", "inactive"),
    ("CC(C)C12C=CC(C)(CC1)C1C(=O)N(N3CCCCS/C3=N\\c3ccc(Cl)cc3)C(=O)C12 (centres undefined)", "inactive"),
    ("CC(C)C12C=CC(C)(CC1)C1C(=O)N(NC(=S)Nc3ccc(Cl)cc3)C(=O)C12 (centres undefined)", "inactive"),
]

Human alphaherpesvirus 1 assay, compound Cc1ccc(NC(=S)NN2C(=O)C3C(C2=O)C2(C(C)C)C=CC3(C)CC2)cc1 (centres undefined) , recorded Activity = inactive

Human alphaherpesvirus 1 assay, compound Cc1ccc(/N=C2\SCCCCN2N2C(=O)C3C(C2=O)C2(C(C)C)C=CC3(C)CC2)cc1 (centres undefined) , recorded Activity = inactive

Human alphaherpesvirus 1 assay, compound CC1=CC2C(C(C)C)CC1C1C(=O)N(NC(=S)Nc3ccc(I)cc3)C(=O)C21 (centres undefined) , recorded Activity = inactive

Human alphaherpesvirus 1 assay, compound CC1=CC2C(C(C)C)CC1C1C(=O)N(N3CCCCS/C3=N\c3ccc(Cl)cc3)C(=O)C21 (centres undefined) , recorded Activity = inactive
